system: MOLT-4 leukemia; experiment: NCI tumour cell line growth inhibition, 48 h
Please respond with reported TGI for every item in the list.

Study these solved cases before continuing.
>>> observed_result("Oc1c(Cl)cc(Cl)c2ccc(Cn3cc(-c4ccc(C(F)(F)F)cc4)nn3)nc12")
"8.8 µM"
>>> observed_result("C/C(=N\\NC(=O)c1ccccc1O)c1cccc(/C(C)=N/NC(=O)c2ccccc2O)n1.O=S(=O)([O-])[O-].[Fe+2]")
"> 100 µM"

For each of the compounds below, note its TGI.
1. CNS(=O)(=O)NNS(=O)(=O)c1ccc(OC)cc1
2. NS(=O)(=O)c1cc(C(=O)O)c(O)c2ccccc12
3. COC(=O)CCNC(=O)OCc1ccccc1
4. O=C1/C(=C/c2ccccc2[N+](=O)[O-])N=C(c2ccccc2)N1c1nc2ccccc2s1
5. COc1ccc(-c2c3c(n(C4OC(CO)C(O)C(O)C4O)c(=S)c2C#N)CCCC3)cc1 (centres undefined)
6. COc1ccc2c(c1)CCCN1CCc3ccccc3C21 (centres undefined)
7. Cc1cccc2sc(-c3ccc(O)cc3)nc12

["> 100 µM", "> 100 µM", "> 100 µM", "34.7 µM", "> 100 µM", "> 100 µM", "> 100 µM"]

====

system: UACC-62 melanoma; experiment: NCI tumour cell line growth inhibition, 48 h
Please respond with reported log10 TGI for every item in the list.
Please keep in mind that the values are log10 of TGI expressed in µM.

>>> observed_result("CCCCCC/C=C\\CCCCCCCCCC1=C(CN2CCN(C)CC2)C(=O)C=C(OC)C1=O")
1.41

For each of the molecules below, note its log10 TGI.
1. C=C1C(=O)O[C@H]2C1C[C@@H](OC(C)=O)/C(C)=C/CC[C@@]1(C)O[C@H]21 (stereo not given in full)
2. COc1ccc(OC)c2c1C=CC(Br)=CC2
3. CN1CCN(Cc2ccc(NC(=O)c3cncc(C#Cc4cnc(N)c5cccnc45)c3)cc2C(F)(F)F)CC1
4. Clc1ccc(CCN[C@H]2CCCC[C@H]2N2CCCC2)cc1Cl
5. O=C1C=CC(=O)c2c(O)c3c(c(O)c21)C[C@H](O)[C@H](O)[C@@H]3O
6. CCCCCCCCCC[C@H](O)[C@H](O)CC[C@@H](O)[C@H]1CC[C@@H]([C@H]2CC[C@H](CCCCCCC[C@@H](O)CC3=C[C@H](C)OC3=O)O2)O1

1.19
-0.46
-0.02
1.54
1.00
0.77

====

Please respond with reported GI50 for every item in the list.
system: CAKI-1 renal; assay: NCI tumour cell line growth inhibition, 48 h

Study these solved cases before continuing.
>>> observed_result("Clc1ccccc1-c1nnc2c(Cc3ccccc3)nc3ccccc3n12")
"9.59 µM"
>>> observed_result("Oc1c(Cl)cc(Cl)c2ccc(Cn3cc(-c4ccc(C(F)(F)F)cc4)nn3)nc12")
"1.25 µM"
>>> observed_result("CC(=O)[CH-]C(=O)c1ccccc1.CC(=O)[CH-]C(=O)c1ccccc1.CC(=O)[CH-]C(=O)c1ccccc1.[Nd+3].[OH3+]")
"61 µM"
>>> observed_result("COC(=O)c1oc2c(C(=O)/C=C/c3ccc(OC)cc3)c(OCCN(C)C)ccc2c1C")
"6.95 µM"
>>> observed_result("C/C(=C(\\c1ccc(OCCN2CCCCCC2)cc1)c1ccc(OC(=O)c2ccccc2)cc1)c1ccc(Cl)cc1")
"3.86 µM"
>>> observed_result("Cn1c2c(c3c(Cl)nncc31)Cc1ccccc1-2")
"16.9 µM"

--- query ---
Answer with the recorded GI50 of Cc1cc(-c2cc(O)ccc2Cl)cc2nnc(Nc3ccc(OCCN4CCCC4)cc3)nc12 only.
1.54 µM
